System: Klebsiella pneumoniae
Test: Antibacterial activity against Carbapenem-resistant Klebsiella pneumoniae FADD1-KP022 clinical isolates assessed as reduction in bacterial growth by broth microdilution method
Type: functional
PROPERTY LABEL: MIC (µg/mL)
Give just the number in µg/mL; leave the unit off.

Before answering, review these 6 worked examples.
smiles_structure=CC[C@H](C)CCCCC(=O)N[C@@H](CCN)C(=O)N[C@H](C(=O)N[C@@H](CCN)C(=O)N[C@H]1CCNC(=O)[C@H](CC(=O)O)NC(=O)[C@H](CCN)NC(=O)[C@H](CCN)NC(=O)[C@H](CC(C)C)NC(=O)[C@@H](Cc2ccccc2)NC(=O)[C@H](CCN)NC1=O)[C@@H](C)O units_of_measure=µg/mL numeric_readout=16
smiles_structure=CC[C@H](C)CCCCC(=O)N[C@@H](CCN)C(=O)N[C@H](C(=O)N[C@@H](CCN)C(=O)N[C@H]1CCNC(=O)[C@H](CCCCN)NC(=O)[C@H](CCN)NC(=O)[C@H](CCN)NC(=O)[C@H](CC(C)C)NC(=O)[C@@H](Cc2ccccc2)NC(=O)[C@H](CCN)NC1=O)[C@@H](C)O units_of_measure=µg/mL numeric_readout=2
smiles_structure=CC[C@H](C)CCCCC(=O)N[C@@H](CCN)C(=O)N[C@H](C(=O)N[C@@H](CCN)C(=O)N[C@H]1CCNC(=O)[C@H](CCSC)NC(=O)[C@H](CCN)NC(=O)[C@H](CCN)NC(=O)[C@H](CC(C)C)NC(=O)[C@@H](Cc2ccccc2)NC(=O)[C@H](CCN)NC1=O)[C@@H](C)O units_of_measure=µg/mL numeric_readout=1
smiles_structure=CC[C@H](C)CCCCC(=O)N[C@@H](CCN)C(=O)N[C@H](C(=O)N[C@@H](CCN)C(=O)N[C@H]1CCNC(=O)CNC(=O)[C@H](CCN)NC(=O)[C@H](CCN)NC(=O)[C@H](CC(C)C)NC(=O)[C@@H](Cc2ccccc2)NC(=O)[C@H](CCN)NC1=O)[C@@H](C)O units_of_measure=µg/mL numeric_readout=1
smiles_structure=CC[C@H](C)CCCCC(=O)N[C@@H](CCN)C(=O)N[C@H](C(=O)N[C@@H](CCN)C(=O)N[C@H]1CCNC(=O)[C@H]([C@@H](C)OC)NC(=O)[C@H](CCN)NC(=O)[C@H](CCN)NC(=O)[C@H](CC(C)C)NC(=O)[C@@H](Cc2ccccc2)NC(=O)[C@H](CCN)NC1=O)[C@@H](C)O units_of_measure=µg/mL numeric_readout=1
smiles_structure=CC[C@H](C)CCCCC(=O)N[C@@H](CCN)C(=O)N[C@H](C(=O)N[C@@H](CCN)C(=O)N[C@H]1CCNC(=O)[C@H](C)NC(=O)[C@H](CCN)NC(=O)[C@H](CCN)NC(=O)[C@H](CC(C)C)NC(=O)[C@@H](Cc2ccccc2)NC(=O)[C@H](CCN)NC1=O)[C@@H](C)O units_of_measure=µg/mL numeric_readout=0.5

[Q] Give MIC for CC[C@H](C)CCCCC(=O)N[C@@H](CCN)C(=O)N[C@H](C(=O)N[C@@H](CCN)C(=O)N[C@H]1CCNC(=O)[C@H]([C@H](C)O)NC(=O)[C@H](CCN)NC(=O)[C@H](CCN)NC(=O)[C@H](CC(C)C)NC(=O)[C@@H](Cc2ccccc2)NC(=O)[C@H](CCN)NC1=O)[C@@H](C)O
[A] 0.25

[Q] Give MIC for CC[C@H](C)CCCCC(=O)N[C@@H](CCN)C(=O)N[C@H](C(=O)N[C@@H](CCN)C(=O)N[C@H]1CCNC(=O)[C@H](CCC(=O)O)NC(=O)[C@H](CCN)NC(=O)[C@H](CCN)NC(=O)[C@H](CC(C)C)NC(=O)[C@@H](Cc2ccccc2)NC(=O)[C@H](CCN)NC1=O)[C@@H](C)O
[A] 32

---

System: Pseudomonas aeruginosa
Experiment: Antibacterial activity against polymyxin-susceptible Pseudomonas aeruginosa FADD1-PA025 clinical isolates assessed as reduction in bacterial growth by broth microdilution method
Format: functional
PROPERTY LABEL: MIC (µg/mL)
Give just the number in µg/mL; leave the unit off.

molecule=CC[C@H](C)CCCCC(=O)N[C@@H](CCN)C(=O)N[C@H](C(=O)N[C@@H](CCN)C(=O)N[C@H]1CCNC(=O)[C@H](C(C)(C)C)NC(=O)[C@H](CCN)NC(=O)[C@H](CCN)NC(=O)[C@H](CC(C)C)NC(=O)[C@@H](Cc2ccccc2)NC(=O)[C@H](CCN)NC1=O)[C@@H](C)O property_label=MIC units_of_measure=µg/mL numeric_readout=2
molecule=CC[C@H](C)CCCCC(=O)N[C@@H](CCN)C(=O)N[C@H](C(=O)N[C@@H](CCN)C(=O)N[C@H]1CCNC(=O)[C@H]([C@@H](C)OC)NC(=O)[C@H](CCN)NC(=O)[C@H](CCN)NC(=O)[C@H](CC(C)C)NC(=O)[C@@H](Cc2ccccc2)NC(=O)[C@H](CCN)NC1=O)[C@@H](C)O property_label=MIC units_of_measure=µg/mL numeric_readout=2
molecule=CC[C@H](C)CCCCC(=O)N[C@@H](CCN)C(=O)N[C@H](C(=O)N[C@@H](CCN)C(=O)N[C@H]1CCNC(=O)[C@H](CC)NC(=O)[C@H](CCN)NC(=O)[C@H](CCN)NC(=O)[C@H](CC(C)C)NC(=O)[C@@H](Cc2ccccc2)NC(=O)[C@H](CCN)NC1=O)[C@@H](C)O property_label=MIC units_of_measure=µg/mL numeric_readout=1

[Q] Give Pseudomonas aeruginosa MIC for the following molecule: CC[C@H](C)CCCCC(=O)N[C@@H](CCN)C(=O)N[C@H](C(=O)N[C@@H](CCN)C(=O)N[C@H]1CCNC(=O)[C@H](C)NC(=O)[C@H](CCN)NC(=O)[C@H](CCN)NC(=O)[C@H](CC(C)C)NC(=O)[C@@H](Cc2ccccc2)NC(=O)[C@H](CCN)NC1=O)[C@@H](C)O
[A] 1

[Q] Give Pseudomonas aeruginosa MIC for the following molecule: CC[C@H](C)CCCCC(=O)N[C@@H](CCN)C(=O)N[C@H](C(=O)N[C@@H](CCN)C(=O)N[C@H]1CCNC(=O)[C@H](CC(N)=O)NC(=O)[C@H](CCN)NC(=O)[C@H](CCN)NC(=O)[C@H](CC(C)C)NC(=O)[C@@H](Cc2ccccc2)NC(=O)[C@H](CCN)NC1=O)[C@@H](C)O
[A] 4

[Q] Give Pseudomonas aeruginosa MIC for the following molecule: CC[C@H](C)CCCCC(=O)N[C@@H](CCN)C(=O)N[C@H](C(=O)N[C@@H](CCN)C(=O)N[C@H]1CCNC(=O)[C@H](CO)NC(=O)[C@H](CCN)NC(=O)[C@H](CCN)NC(=O)[C@H](CC(C)C)NC(=O)[C@@H](Cc2ccccc2)NC(=O)[C@H](CCN)NC1=O)[C@@H](C)O
[A] 2

[Q] Give Pseudomonas aeruginosa MIC for the following molecule: CC[C@H](C)CCCCC(=O)N[C@@H](CCN)C(=O)N[C@H](C(=O)N[C@@H](CCN)C(=O)N[C@H]1CCNC(=O)[C@H](Cc2ccc(O)cc2)NC(=O)[C@H](CCN)NC(=O)[C@H](CCN)NC(=O)[C@H](CC(C)C)NC(=O)[C@@H](Cc2ccccc2)NC(=O)[C@H](CCN)NC1=O)[C@@H](C)O
[A] 2

[Q] Give Pseudomonas aeruginosa MIC for the following molecule: C/C=C1/NC(=O)[C@H](CCN)NC(=O)[C@H](CCN)NC(=O)[C@H](CC(C)C)NC(=O)[C@@H](Cc2ccccc2)NC(=O)[C@H](CCN)NC(=O)[C@@H](NC(=O)[C@H](CCN)NC(=O)[C@@H](NC(=O)[C@H](CCN)NC(=O)CCCC[C@@H](C)CC)[C@@H](C)O)CCNC1=O
[A] 2

[Q] Give Pseudomonas aeruginosa MIC for the following molecule: CC[C@H](C)CCCCC(=O)N[C@@H](CCN)C(=O)N[C@H](C(=O)N[C@@H](CCN)C(=O)N[C@H]1CCNC(=O)[C@H](C(C)N=[N+]=[N-])NC(=O)[C@H](CCN)NC(=O)[C@H](CCN)NC(=O)[C@H](CC(C)C)NC(=O)[C@@H](Cc2ccccc2)NC(=O)[C@H](CCN)NC1=O)[C@@H](C)O (some centres undefined)
[A] 1

[Q] Give Pseudomonas aeruginosa MIC for the following molecule: CC[C@H](C)CCCCC(=O)N[C@@H](CCN)C(=O)N[C@H](C(=O)N[C@@H](CCN)C(=O)N[C@H]1CCNC(=O)[C@H](Cc2c[nH]cn2)NC(=O)[C@H](CCN)NC(=O)[C@H](CCN)NC(=O)[C@H](CC(C)C)NC(=O)[C@@H](Cc2ccccc2)NC(=O)[C@H](CCN)NC1=O)[C@@H](C)O
[A] 8

[Q] Give Pseudomonas aeruginosa MIC for the following molecule: CC[C@H](C)CCCCC(=O)N[C@@H](CCN)C(=O)N[C@H](C(=O)N[C@@H](CCN)C(=O)N[C@H]1CCNC(=O)[C@H](CCSC)NC(=O)[C@H](CCN)NC(=O)[C@H](CCN)NC(=O)[C@H](CC(C)C)NC(=O)[C@@H](Cc2ccccc2)NC(=O)[C@H](CCN)NC1=O)[C@@H](C)O
[A] 2
